From: PubChem BioAssay (NCATS)

# experiment_notes: qHTS assay for small molecule activators of the p53 signaling pathway (AID 651743); note: series mostly up to about 92 µM; % of control where 0% means no effect
# condition_label: HCT-116 p53RE-bla, beta-lactamase FRET ratio, 16 h; active compounds read high
Results filed as inconclusive are left out.
reported_property: activation (%)
Report the figure in % without appending any unit label.

Worked examples, 5 compounds total:
compound: Cc1ccc(Cl)cc1
activation (%): -2.72
//
compound: O=[N+]([O-])c1cccc(Cl)c1
activation (%): -3.73
//
compound: CCOCCO
activation (%): -2.61
//
compound: CC1(N)CCC(C(C)(C)N)CC1 (stereo unspecified)
activation (%): 0.302
//
compound: C=CC(=O)OCCCC
activation (%): -0.944

Entry under test: `COC(=O)CS` . Its activation was -2.8

Entry under test: `CCCCCCCCC` . Its activation was -1.85

Entry under test: `CNc1ccccc1` . Its activation was 2.04

Entry under test: CC(N)CN (stereo unspecified) . Its activation was -0.238

Entry under test: `CC(C)CCOC(=O)/C=C/c1ccccc1` . Its activation was 1.36

Entry under test: `ON=C1CCCCC1` . Its activation was -1.24

Entry under test: `Cc1cccc2sc(N)nc12` . Its activation was 2.1

Entry under test: `C=C(C)C(N)=O` . Its activation was -2.66

Entry under test: `CNC(=O)c1ccccc1` . Its activation was 1.09

Entry under test: `FC(F)(F)c1cccc(Cl)c1` . Its activation was -1.63

Entry under test: `CC(=C/C=C/C(C)=C/C=C/C=C(C)/C=C/C=C(C)/C=C/C(=O)O)/C=C/C(=O)O` . Its activation was -0.825

Entry under test: `O=Cc1ccc(C(=O)O)cc1` . Its activation was -2.17

Entry under test: `OCCO` . Its activation was -3.22

Entry under test: CC1CCCO1 (stereo unspecified) . Its activation was -2.21

Entry under test: `FC(F)(F)c1ccccc1Cl` . Its activation was 1.57

Entry under test: `O=C1OC(=O)c2cc([N+](=O)[O-])ccc21` . Its activation was 1.53

Entry under test: `Cc1ccc(C)c(O)c1` . Its activation was 0.75

Entry under test: `CN(C)CCCCl` . Its activation was -1.08

Entry under test: `O=Cc1ccc(Cl)cc1` . Its activation was -0.245

Entry under test: `Cc1ccc(C(=O)O)cc1` . Its activation was -5.46

Entry under test: `C/C=C(/C)C#N` . Its activation was -0.853

Entry under test: CC(=O)C1(C)CC2=C(CCCC2(C)C)CC1C (stereo unspecified) . Its activation was -2.14

Entry under test: `O=C(O)c1ccc(Cl)cc1Cl` . Its activation was -4.73

Entry under test: `Cc1c(C(=O)O)cccc1[N+](=O)[O-]` . Its activation was 1.1
